Collected CC50 values appear next to each entry.
EXPERIMENT: Compound was tested for cytotoxicity against HSV-2 (herpes simplex type 2) of HFF (human foreskin fibroblasts) cells by cytopathogenic effect (CPE) inhibition assay
Assay type: cell-based
CONDITION_SET: HFF (human foreskin fibroblast) cells

As a guide, the following entries are already answered.
COMPOUND: Nc1ncnc2c1ncn2[C@H]1C[C@H](O)[C@@]2(O)CC12 (stereo not given in full)
VALUE_OBSERVED: > 100 µg/mL
--
COMPOUND: Cc1cn([C@H]2C[C@H](O)[C@@]3(O)CC23)c(=O)[nH]c1=O (stereo not given in full)
VALUE_OBSERVED: > 100 µg/mL
--
COMPOUND: Nc1ccn([C@H]2C[C@H](O)[C@@]3(O)CC23)c(=O)n1 (stereo not given in full)
VALUE_OBSERVED: 96 µg/mL

Give reported CC50 value for Nc1nc(O)c2ncn([C@H]3C[C@H](O)[C@@]4(O)CC34)c2n1 (stereo not given in full)
> 100 µg/mL

Give reported CC50 value for O=c1ccn([C@H]2C[C@H](O)[C@@]3(O)CC23)c(=O)[nH]1 (stereo not given in full)
> 100 µg/mL

Data credit: ChEMBL document CHEMBL1129644
